# Test target: T1, FAM19A5-M5
# T1 construct: also called FAM19A5 mutant M5
# T1 FAM19A5 mutant: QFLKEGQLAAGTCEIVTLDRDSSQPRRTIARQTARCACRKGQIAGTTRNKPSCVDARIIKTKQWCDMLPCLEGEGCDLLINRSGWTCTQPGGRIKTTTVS
# Assay: ELISA on phage-displayed FAM19A5 mutants; y axis without label; no blank in the panel, lowest bars about 0.05

Binder	binding result
Anti-FAM19A5 (P1-A08) (antibody, V domains shown, Only variable domains are tied to the name) VH: QSLEESGGRLVTPGTPLTLTCTASGFSLSTYYMSWVRQAPGKGLEWIGIVYPSGTTYYANWAKGRFTISTASTTVDLMITSPTTEDTATYFCARGDSFGYGLWGPGTLVTVSS VL: ELVLTQSPSVQVNLGQTVSLTCTADTLSRSYASWYQQKPGQAPVLLIYRDTSRPSGVPDRFSGSSSGNTATLTISGAQAGDEADYYCATSDGSGSNYQYVFGGGTQLTVT	binds
